Target: T1, BFL-1ΔC C55 (N-His6 BFL-1ΔC (1–151) bearing C4S/C19S mutations) (human, UniProt Q16548 1-151, C4S | C19S)
T1 sequence (looked up): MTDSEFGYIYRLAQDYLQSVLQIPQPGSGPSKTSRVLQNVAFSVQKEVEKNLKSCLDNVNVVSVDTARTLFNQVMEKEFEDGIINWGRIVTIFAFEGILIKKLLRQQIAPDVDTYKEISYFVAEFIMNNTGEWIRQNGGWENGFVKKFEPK
Assay: fluorescence polarisation
Where no end group is shown, it is not given here. The star is where a group is joined. FITC = O=C1OC2(c3ccc(O)cc3Oc3cc(O)ccc32)c2ccc(NC(=S)*)cc21
measureName: pKd
Formally, pKd is defined as -log10 of the concentration c, with c in mol/L.

### Prompt I'd like to know its pKd. The binder in question is {FITC}-DIIRNIARHLAQVGDSMDRSI [FITC-BID BH3 peptide]
### Response 8.80

Data credit: paper PMC7544158
